experimental-system: human CB1 receptor (Homo sapiens, UniProt P21554)
Sequence (P21554 whole entry): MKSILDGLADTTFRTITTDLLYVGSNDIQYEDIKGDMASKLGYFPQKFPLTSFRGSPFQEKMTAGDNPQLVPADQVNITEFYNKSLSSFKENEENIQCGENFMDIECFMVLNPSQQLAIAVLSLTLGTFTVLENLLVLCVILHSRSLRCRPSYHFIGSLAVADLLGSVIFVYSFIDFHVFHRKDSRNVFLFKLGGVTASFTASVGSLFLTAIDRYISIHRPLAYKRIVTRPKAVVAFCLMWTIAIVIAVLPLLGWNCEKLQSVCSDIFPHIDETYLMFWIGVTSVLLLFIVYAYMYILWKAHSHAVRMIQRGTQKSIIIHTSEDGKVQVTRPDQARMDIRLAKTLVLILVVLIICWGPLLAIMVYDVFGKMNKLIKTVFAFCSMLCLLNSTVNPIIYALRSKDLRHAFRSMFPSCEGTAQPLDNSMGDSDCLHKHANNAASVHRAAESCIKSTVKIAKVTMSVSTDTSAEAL
Task for the reader: assign each of the following compounds its reported log10 IC50.
Recorded IC50 (log10, nM)

Field: log10 IC50. Fill in for each record below.
1. Cc1c(C(C)(C)C)s/c(=N\C(=O)c2c(F)cccc2F)n1CC1CC1
2. Cc1ncccc1C(=O)/N=c1/sc(C(C)(C)C)c(C)n1CC1CC1
3. Cc1cccc(C(=O)/N=c2\sc(C(C)(C)C)c(C)n2CC2CC2)c1I
4. Cc1c(C(C)(C)C)s/c(=N\C(=O)c2cc(Cl)ccc2Cl)n1CC1CC1
5. Cc1c(C(C)(C)C)s/c(=N\C(=O)c2ccccc2C(F)(F)F)n1CC1CC1
6. CCOc1ccc(C(=O)/N=c2\sc(C(C)(C)C)c(C)n2CC2CC2)c(OCC)c1
7. COc1cc(Cl)ccc1C(=O)/N=c1\sc(C(C)(C)C)c(C)n1CC1CC1
8. Cc1c(C(C)(C)C)s/c(=N\C(=O)c2ccccc2C(C)C)n1CC1CC1

Response:
2.23
2.70
0.30
2.32
2.14
2.30
2.26
1.34

###

experimental-system: human CB2 receptor (Homo sapiens)
Construct: expressed in transfected cells
Sequence (P34972 whole entry): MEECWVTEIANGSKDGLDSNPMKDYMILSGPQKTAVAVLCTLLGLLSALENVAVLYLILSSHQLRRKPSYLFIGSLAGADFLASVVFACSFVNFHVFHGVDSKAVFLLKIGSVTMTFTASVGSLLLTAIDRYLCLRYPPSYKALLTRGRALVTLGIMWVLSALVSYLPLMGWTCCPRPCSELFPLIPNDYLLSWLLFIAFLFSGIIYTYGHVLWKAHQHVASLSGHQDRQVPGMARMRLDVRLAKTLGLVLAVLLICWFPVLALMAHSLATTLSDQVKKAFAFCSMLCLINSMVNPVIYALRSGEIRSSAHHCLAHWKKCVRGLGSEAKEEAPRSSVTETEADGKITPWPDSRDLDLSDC
method: Human CB2 receptor binding inhibition test ([3H]CP-55,940, CHO membrane fractions)
settings: [3H]CP-55,940, membrane fractions of CHO cells stably expressing human CB2 receptor, 25° C., 2 hours; read-out: CB2 IC50 (Inhibition of binding to human CB2 receptor)
Provide the recorded log10 IC50 for the entries that follow.
Please keep in mind that the values are log10 of IC50 expressed in nM.

Example compounds with recorded log10 IC50:
compound	recorded-value
CC(=O)OC(C(=O)/N=c1\sc(C(C)(C)C)c(C)n1CC1CC1)c1ccccc1 (centres unmarked)	0.72
Cc1s/c(=N\C(=O)c2c(F)cccc2C(F)(F)F)n(CC2CC2)c1C	0.46
Cc1c(C(C)C)s/c(=N\C(=O)c2cccc(C(F)(F)F)c2F)n1CC1CC1	0.04
CC(C)(C)c1c/c(=N\C(=O)c2cccc(C(F)(F)F)c2F)n(CC2CC2)s1	-0.10

Each compound below has a recorded value; state its log10 IC50.
1. Cn1c(C(C)(C)C)c/c(=N\C(=O)c2cccc(C(F)(F)F)c2F)n1CC1CCC1
2. O=C(/N=c1\cc(Cl)ccn1CC1CC1)c1cccc(C(F)(F)F)c1F
3. Cc1c(C(C)(C)C)s/c(=N\C(=O)c2c(Cl)cncc2Cl)n1CC1CC1
4. Cc1c(C(C)(C)C)s/c(=N\C(=O)c2cc(F)c(Cl)cc2Cl)n1C
5. COc1cccc(F)c1C(=O)/N=c1\sc(C(C)(C)C)c(C)n1CC1CC1
6. CC(C)OCCn1/c(=N/C(=O)c2cccc(Cl)c2Cl)cc(C(C)(C)C)n1C
7. Cc1c(C(C)(C)C)s/c(=N\C(=O)C(F)(F)C(F)(F)C(F)(F)F)n1C

Response:
[0.08, 0.91, 0.56, 1.06, -0.22, 0.70, 1.09]

###

experimental-readout: melting point

Some solved entries appear below for comparison.
given-smiles	experimental-readout	recorded-value
O=C(/N=c1\cc(Cl)ccn1CC1CC1)c1cccc(C(F)(F)F)c1F	melting point	91 to 93 °C
Cc1c(Br)cc/c(=N\C(=O)c2cccc(C(F)(F)F)c2F)n1CC1CC1	melting point	135 to 137 °C
Cc1c(C(C)(C)C)s/c(=N\C(=O)c2cccc(C(N)=O)c2)n1CC1CC1	melting point	76 to 78 °C
Cc1s/c(=N\C(=O)c2cccc(C(F)(F)F)c2)n(C)c1C	melting point	110 to 111 °C
Cc1ccccc1C(=O)/N=c1/sc2cccc(C)c2n1CC1CC1	melting point	133 to 134 °C
Cc1c(C(C)(C)C)s/c(=N\C(=O)c2c(Cl)ccc3cc(Cl)cnc23)n1CC1CC1	melting point	172 to 174 °C
CN(C)c1cccc(C(=O)/N=c2\sc3ccccc3n2CC2CC2)c1	melting point	156 to 158 °C
CCn1c(C)c(C(C)(C)C)s/c1=N\C(=O)c1cc(F)ccc1C(F)(F)F	melting point	103 to 104 °C

Request: Query (compound): Cc1c(C(C)(C)C)s/c(=N\C(=O)c2cc(Cl)ccc2Cl)n1C ; field requested: melting point
Response: 171 to 173 °C
